# Tested on: HUVECs
# protocol: Cytotoxicity in HUVECs, MTT cell proliferation kit
# Assay type: cell-based, human
# condition_notes: 100 µM, 24h

compound	cytotoxicity in HUVECs (cell viability)
CC(=O)N[C@H]1[C@H](Oc2ccc(NC(=O)c3ccc(O[C@@H]4O[C@H](CO)[C@@H](O)[C@H](O)[C@H]4NC(C)=O)cc3)cc2)O[C@H](CO)[C@@H](O)[C@@H]1O	not toxic
CC(=O)N[C@@H]1[C@@H](OC(C)=O)[C@H](OC(C)=O)[C@@H](COC(C)=O)O[C@H]1NC(=O)c1ccc(O[C@@H]2O[C@H](CO)[C@@H](O)[C@H](O)[C@H]2NC(C)=O)cc1	not toxic
CC(=O)N[C@H]1[C@H](Oc2ccc3nonc3c2)O[C@H](CO)[C@@H](O)[C@H]1O (stereo in doubt)	not toxic

* * *

# Tested on: THP-1 (human monocytic) cells
# protocol: Cytokine response (IL-1β, TNF-α, IL-10) of THP-1 cells treated with compounds
# Assay type: cell-based
# condition_notes: 100-200 µM
metric_name: anti-inflammatory cytokine IL-10

> print(dat)
                                   molecule                       metric.name  measurement
1  CC(=O)NC1[C@H](Oc2cccc3sc(NC(=O)C(C)(C)C)nc23)O[C@H](CO)[C@@H](O)[C@@H]1O (single isomer, unassigned)  anti-inflammatory cytokine IL-10    decreased
2  CC(=O)NC1[C@H](Oc2ccc(B3OC(C)(C)C(C)(C)O3)cc2)O[C@H](CO)[C@@H](O)[C@@H]1O (single isomer, unassigned)  anti-inflammatory cytokine IL-10    decreased
3  CC(=O)N[C@H]1[C@H](Oc2ccc3nonc3c2)O[C@H](CO)[C@@H](O)[C@H]1O (stereo in doubt)  anti-inflammatory cytokine IL-10    decreased

* * *

# Test system: THP-1 (human monocytic) cells
# protocol: Cytokine response (IL-1β, TNF-α, IL-10) of THP-1 cells treated with compounds
# Assay type: cell-based
# condition_notes: 100-200 µM
metric_name: anti-inflammatory cytokine IL-10

> print(dat)
                                   compound  measurement
1  CC(=O)N[C@H]1[C@H](Oc2ccc([N+](=O)[O-])cc2)O[C@H](CO)[C@@H](O)[C@@H]1O [Compound 8]    decreased
2  CC(=O)N[C@H]1[C@H](Oc2ccc(C#N)cc2)O[C@H](CO)[C@@H](O)[C@@H]1O [Compound 14]    decreased
3  CC(=O)NC1[C@H](Oc2ccc3c(C)cc(=O)oc3c2)O[C@H](CO)[C@@H](O)[C@@H]1O (single isomer, unassigned) [Compound 29]    decreased
